Source listed as patent US8134015B2.

# experimentalTarget: rat NaPi-2b (Rattus norvegicus)
# Sequence (Q9JJ09 whole entry): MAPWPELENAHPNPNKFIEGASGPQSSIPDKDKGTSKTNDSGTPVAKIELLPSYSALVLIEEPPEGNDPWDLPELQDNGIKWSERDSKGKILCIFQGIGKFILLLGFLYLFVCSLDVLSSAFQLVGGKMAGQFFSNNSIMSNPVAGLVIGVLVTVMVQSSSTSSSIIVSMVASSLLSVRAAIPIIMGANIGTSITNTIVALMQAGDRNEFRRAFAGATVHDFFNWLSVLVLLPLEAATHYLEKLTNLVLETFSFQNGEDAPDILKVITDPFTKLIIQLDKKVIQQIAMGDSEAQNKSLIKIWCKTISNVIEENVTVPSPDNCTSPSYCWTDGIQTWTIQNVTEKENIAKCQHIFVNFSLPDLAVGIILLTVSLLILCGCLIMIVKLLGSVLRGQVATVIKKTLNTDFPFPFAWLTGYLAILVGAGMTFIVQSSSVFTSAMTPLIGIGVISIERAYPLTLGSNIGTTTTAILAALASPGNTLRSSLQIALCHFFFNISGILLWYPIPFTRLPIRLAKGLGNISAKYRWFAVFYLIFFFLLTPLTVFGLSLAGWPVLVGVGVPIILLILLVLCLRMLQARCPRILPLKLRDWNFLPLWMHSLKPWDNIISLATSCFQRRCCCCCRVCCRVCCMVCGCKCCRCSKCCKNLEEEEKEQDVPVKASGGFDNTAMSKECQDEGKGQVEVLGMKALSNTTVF
# procedureText: Sodium-dependent phosphate uptake of Xenopus oocytes which expressed NaPi-2b (32P)
# measurementSetup: Xenopus oocytes expressing rat NaPi-2b, 32P radioactive phosphorus; read-out: IC50 (phosphate uptake inhibitory activity)
measurementKind: pIC50
Numbers only, as −log10 of the molar value.

In the examples that follow, each entry is paired with its recorded pIC50.
| chemicalString | pIC50 |
| --- | --- |
| Cc1ccc(/C=N/NC(=O)c2cc(Br)ccc2NC(=O)c2ccc(CN3CCC(N4CCCCC4)CC3)cc2)cc1C | 5.56 |
| COc1ccc(/C=N/NC(=O)c2c(NC(=O)c3cccc(CN4CCC(O)CC4)c3)sc3c2CCCC3)cc1 | 5.50 |
| COc1ccc(/C=N/n2c(-c3cccc(CSc4nc[nH]n4)c3)nc3sc4c(c3c2=O)CCCC4)cc1 | 3.58 |
| Cc1csc(NC(=O)c2cccc(CN3CCC4(CC3)OCCO4)c2)c1C(=O)N/N=C/c1ccc(Cl)c(C(F)(F)F)c1 | 6.11 |

Shifting focus to the compound that follows.
Request: // lookup pIC50 for CCOc1ccc(C(=O)Nc2ccc(Br)cc2C(=O)N/N=C/c2ccc(C)c(C)c2)cc1
Result: 4.72

---

# experimentalTarget: rat NaPi-2b (Rattus norvegicus)
# procedureText: Sodium-dependent phosphate uptake of Xenopus oocytes which expressed NaPi-2b (32P)
# measurementSetup: Xenopus oocytes expressing rat NaPi-2b, 32P radioactive phosphorus; read-out: IC50 (phosphate uptake inhibitory activity)
Hi there, I'd appreciate the recorded log10 of IC50 for every entry that follows.
Quick note: numbers are log10 of IC50, with µM as the unit.

Before answering, review these 6 worked examples.
| compound | log10 of IC50 |
| --- | --- |
| CC(O)CN(Cc1cccc(C(=O)Nc2ccc(F)cc2C(=O)N/N=C/c2ccc(Cl)c(C(F)(F)F)c2)c1)CC(C)O (centres unmarked) [Compound 857] | 0.07 |
| COc1ccc(C(=O)Nc2ccc(Cl)cc2C(=O)N/N=C/c2ccc(C)c(C)c2)cc1OC | -0.59 |
| CN(CCO)Cc1ccc(C(=O)Nc2ccc(Cl)cc2C(=O)N/N=C/c2cccc(F)c2)cc1 | 0.90 |
| Cc1ccc(/C=N/NC(=O)c2cc(Br)ccc2NC(=O)c2ccccn2)cc1C | -0.01 |
| CC(O)CN(Cc1cccc(C(=O)Nc2ccc(OCC(O)CN3CCOCC3)cc2C(=O)N/N=C/c2ccc(Cl)c(C(F)(F)F)c2)c1)CC(C)O (centres unmarked) | 1.78 |
| CCN(CC)CCN(Cc1cccc(C(=O)Nc2sc3c(c2C(=O)N/N=C/c2cccc(F)c2)CCCC3)c1)C(C)=O | 0.20 |

Dear colleague, could you please provide log10 of IC50 for the compounds listed below?
1. COc1ccc(C(=O)Nc2ccc(Br)cc2C(=O)N/N=C/c2cccc(O)c2)cc1OC
2. COc1ccc(C(=O)Nc2ccccc2C(=O)N/N=C/c2cccc([N+](=O)[O-])c2)cc1OC
3. Cc1cccc(/C=N/NC(=O)c2cc(Br)ccc2NC(=O)c2ccc(CNCCN3CCOCC3)cc2)c1
4. CCN(CC)CCN(Cc1cccc(C(=O)Nc2sc3c(c2C(=O)N/N=C/c2ccc(OC)cc2)CCCC3)c1)C(C)=O

Result:
1: 0.78; 2: 0.76; 3: 1.35; 4: 0.42
